tested system: soluble guanylate cyclase (sGC) (Homo sapiens, UniProt Q02108+Q02153)
Construct: endogenously expressing soluble guanylate cyclase (sGC); endogenous in cells; host or cells: HEK293
method summary: sGC-HEK-cGMP assay with LC/MS detection
Format: cell-based
measurement context: HEK293 whole cells, LC/MS detection of cGMP, 10 μM DETA-NONOate; 50% of high control response (30 μM Compound Y); read-out: Absolute EC50 (nM)- binned (~)
The molecules listed here are annotated with their EC50.

These solved cases illustrate the format of a correct answer.
- molecule: "CCCC[C@H](CO)Nc1nc(-c2cc(-c3ccon3)n(Cc3ccccc3F)n2)ncc1F [Compound 151]"
  EC50: "< 100 nM"
- molecule: "NC(=O)Cc1cn(-c2nc(-c3cc(-c4ccon4)n(Cc4ccccc4F)n3)ncc2F)[nH]c1=O [Compound 41]"
  EC50: "> 1000 nM"

Item: O=c1n(-c2nc(-c3cc(-c4ccon4)n(Cc4ccccc4F)n3)ncc2F)nc2n1CCNC2 [Compound 43] | EC50: > 1000 nM

Item: CN(C)c1cc(-c2ncc(F)c(O)n2)nn1Cc1ccccc1F [Compound 81] | EC50: > 1000 nM

----------
tested system: soluble guanylate cyclase (sGC) (Homo sapiens, UniProt Q02108+Q02153)
Construct: endogenously expressing soluble guanylate cyclase (sGC); endogenous in cells; host or cells: HEK293
method summary: sGC-HEK-cGMP assay with LC/MS detection
Format: cell-based
measurement context: HEK293 whole cells, LC/MS detection of cGMP, 10 μM DETA-NONOate; 50% of high control response (30 μM Compound Y); read-out: Absolute EC50 (nM)- binned (~)
The molecules listed here are annotated with their EC50.

These solved cases illustrate the format of a correct answer.
- molecule: "CC(C(N)=O)C(=O)Nc1ccnc(-c2cc(-c3ccon3)n(Cc3ccccc3F)n2)n1 (centres unmarked)"
  EC50: "> 1000 nM"
- molecule: "CCN(CC)c1nc(-c2cc(-c3ncco3)n(Cc3ccccc3F)n2)ncc1F"
  EC50: "> 1000 nM"
- molecule: "CC(=O)c1cc(-c2ncc(F)c(N[C@@H](CO)C(N)=O)n2)nn1Cc1ccccc1F"
  EC50: "> 1000 nM"

Entry CC(=O)c1cc(-c2ncc(F)c(N(C)C)n2)nn1Cc1ccccc1F under soluble guanylate cyclase (sGC) (Homo sapiens, UniProt Q02108+Q02153) had EC50 of 100 to 1000 nM

Entry CC(C)CC(C)(N)CNc1nc(-c2cc(-c3ccon3)n(Cc3ccccc3F)n2)ncc1F (centres unmarked) under soluble guanylate cyclase (sGC) (Homo sapiens, UniProt Q02108+Q02153) had EC50 of 100 to 1000 nM

Entry CC(=O)c1cc(-c2ncc(F)c(NCC(O)CO)n2)nn1Cc1ccccc1F (centres unmarked) under soluble guanylate cyclase (sGC) (Homo sapiens, UniProt Q02108+Q02153) had EC50 of 100 to 1000 nM

Entry CC(=O)c1cc(-c2ncc(F)c(N3CCN(S(C)(=O)=O)CC3)n2)nn1Cc1ccccc1F under soluble guanylate cyclase (sGC) (Homo sapiens, UniProt Q02108+Q02153) had EC50 of > 30000 nM

Entry CC(=O)c1cc(-c2ncc(F)c(N3CC(NC(=O)C4(O)CC4)C3)n2)nn1Cc1ccccc1F under soluble guanylate cyclase (sGC) (Homo sapiens, UniProt Q02108+Q02153) had EC50 of > 1000 nM

----------
tested system: soluble guanylate cyclase (sGC) (Homo sapiens, UniProt Q02108+Q02153)
Construct: endogenously expressing soluble guanylate cyclase (sGC); endogenous in cells; host or cells: HEK293
method summary: sGC-HEK-cGMP assay with LC/MS detection
Assay type: cell-based
measurement context: HEK293 whole cells, LC/MS detection of cGMP, 10 μM DETA-NONOate; 50% of high control response (30 μM Compound Y); read-out: Absolute EC50 (nM)- binned (~)
The compounds listed here are annotated with their EC50.

These solved cases illustrate the format of a correct answer.
- compound: "CS(=O)(=O)Nc1ccc(CNc2nc(-c3cc(-c4ccon4)n(Cc4ccccc4F)n3)ncc2F)cc1O"
  value measured: "100 to 1000 nM"
- compound: "CC(=O)c1cc(-c2ncc(F)c(N3CCCCC3)n2)nn1Cc1ccccc1F"
  value measured: "100 to 1000 nM"
- compound: "CC(=O)c1cc(-c2ncc(F)c(N3CCCS3(=O)=O)n2)nn1Cc1ccccc1F"
  value measured: "> 1000 nM"
- compound: "Cn1c(=O)c(CC(N)=O)cn1-c1nc(-c2cc(-c3ccon3)n(Cc3ccccc3F)n2)ncc1F"
  value measured: "> 1000 nM"
- compound: "CC(=O)c1cc(-c2ncc(F)c(N3CCNC(=O)C3)n2)nn1Cc1ccccc1F"
  value measured: "> 1000 nM"
- compound: "CC(=O)c1cc(-c2ncc(F)c(N3CC4(COC4)C3)n2)nn1Cc1ccccc1F"
  value measured: "> 1000 nM"

Please find the next compound below.
Item: NCCNc1cnc(-c2cc(-c3ccon3)n(Cc3ccccc3F)n2)nc1 | EC50: > 1000 nM

----------
The compounds listed here are annotated with their EC50.
tested system: sGC enzyme (Homo sapiens, UniProt Q02108+Q02153)
Construct: host or cells: HEK293 cells expressing GloSensor 40F cGMP
method summary: cGMP GloSensor cell-based assay, 384-well format
measurement context: read-out: sGC_HEK_GloSensor EC50/IC50 Abs (Norm) (nM) Binned (~)

These solved cases illustrate the format of a correct answer.
- compound: "Oc1nc(-c2cc(-c3ccon3)n(Cc3cncnc3)n2)ncc1F"
  EC50: "> 1000 nM"
- compound: "NCC(=O)OCCCCNc1nc(-c2cc(-c3ccon3)n(Cc3ccccc3F)n2)ncc1F"
  EC50: "< 100 nM"

Item: Oc1nc(-c2cc(-c3ccon3)n(Cc3cccc(F)c3)n2)ncc1F | EC50: 100 to 1000 nM

Item: Cc1ccc(Cn2nc(-c3ncc(F)c(O)n3)cc2-c2ccon2)c(F)c1 | EC50: 100 to 1000 nM

Item: Cn1cc(Cn2nc(-c3ncc(F)c(O)n3)cc2-c2ccon2)cn1 | EC50: > 1000 nM

Item: Nc1nc(-c2cc(-c3ccon3)n(Cc3ncccc3F)n2)ncc1F | EC50: 100 to 1000 nM

Item: CC(=O)c1cc(-c2nncc(O)n2)nn1Cc1ccccc1F | EC50: > 1000 nM

Item: Oc1nc(-c2cc(-c3ccon3)n(Cc3ccno3)n2)ncc1F | EC50: > 1000 nM

----------
tested system: sGC enzyme (Homo sapiens, UniProt Q02108+Q02153)
Construct: host or cells: HEK293 cells expressing GloSensor 40F cGMP
method summary: cGMP GloSensor cell-based assay, 384-well format
measurement context: read-out: sGC_HEK_GloSensor EC50/IC50 Abs (Norm) (nM) Binned (~)
measurement kind: EC50

These solved cases illustrate the format of a correct answer.
- molecule smiles: "CCOC(=O)C(C)(C)c1nnc(-c2cc(-c3ccon3)n(Cc3ccccc3F)n2)nc1N"
  EC50: "> 1000 nM"
- molecule smiles: "O[C@@H]1CN(c2nc(-c3cc(-c4ccon4)n(Cc4ccccc4F)n3)ncc2F)C[C@@H]1O"
  EC50: "< 100 nM"
- molecule smiles: "CCOC(=O)C(C)(C)c1nnc(-c2cc(-c3ccon3)n(Cc3ccccc3F)n2)nc1O"
  EC50: "100 to 1000 nM"
- molecule smiles: "COC(=O)CCCCNc1nc(-c2cc(-c3ccon3)n(Cc3ccccc3F)n2)ncc1F"
  EC50: "< 100 nM"
- molecule smiles: "CC(C)(C)OC(=O)C[C@H]1C[C@@H](CCNc2nc(-c3cc(-c4ccon4)n(Cc4ccccc4F)n3)ncc2F)OC(C)(C)O1"
  EC50: "< 100 nM"
- molecule smiles: "NCC(=O)OC1CCN(c2nc(-c3cc(-c4ccon4)n(Cc4ccccc4F)n3)ncc2F)CC1"
  EC50: "< 100 nM"

Item: O=c1[nH]c(-c2cc(-c3ccsn3)n(Cc3ccccc3F)n2)ncc1F | EC50: < 100 nM

----------
tested system: soluble guanylate cyclase (sGC) (Homo sapiens, UniProt Q02108+Q02153)
Construct: endogenously expressing soluble guanylate cyclase (sGC); endogenous in cells; host or cells: HEK293
Sequence (Q02153 1-619): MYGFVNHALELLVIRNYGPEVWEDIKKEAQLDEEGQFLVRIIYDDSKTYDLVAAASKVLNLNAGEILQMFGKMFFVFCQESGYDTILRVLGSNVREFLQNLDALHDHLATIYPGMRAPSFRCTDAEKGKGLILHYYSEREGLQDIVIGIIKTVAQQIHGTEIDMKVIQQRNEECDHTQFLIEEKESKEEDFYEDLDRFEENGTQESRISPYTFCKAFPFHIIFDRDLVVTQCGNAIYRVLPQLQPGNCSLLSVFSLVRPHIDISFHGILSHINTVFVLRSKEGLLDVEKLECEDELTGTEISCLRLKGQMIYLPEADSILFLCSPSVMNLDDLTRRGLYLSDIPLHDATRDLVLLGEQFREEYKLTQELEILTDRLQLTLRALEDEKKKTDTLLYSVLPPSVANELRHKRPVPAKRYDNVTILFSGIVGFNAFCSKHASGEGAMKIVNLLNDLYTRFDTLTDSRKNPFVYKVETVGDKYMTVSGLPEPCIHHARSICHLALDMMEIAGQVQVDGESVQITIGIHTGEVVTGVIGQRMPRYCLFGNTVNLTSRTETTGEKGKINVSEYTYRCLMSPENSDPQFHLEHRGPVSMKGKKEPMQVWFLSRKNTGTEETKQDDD
Sequence (Q02108 1-690): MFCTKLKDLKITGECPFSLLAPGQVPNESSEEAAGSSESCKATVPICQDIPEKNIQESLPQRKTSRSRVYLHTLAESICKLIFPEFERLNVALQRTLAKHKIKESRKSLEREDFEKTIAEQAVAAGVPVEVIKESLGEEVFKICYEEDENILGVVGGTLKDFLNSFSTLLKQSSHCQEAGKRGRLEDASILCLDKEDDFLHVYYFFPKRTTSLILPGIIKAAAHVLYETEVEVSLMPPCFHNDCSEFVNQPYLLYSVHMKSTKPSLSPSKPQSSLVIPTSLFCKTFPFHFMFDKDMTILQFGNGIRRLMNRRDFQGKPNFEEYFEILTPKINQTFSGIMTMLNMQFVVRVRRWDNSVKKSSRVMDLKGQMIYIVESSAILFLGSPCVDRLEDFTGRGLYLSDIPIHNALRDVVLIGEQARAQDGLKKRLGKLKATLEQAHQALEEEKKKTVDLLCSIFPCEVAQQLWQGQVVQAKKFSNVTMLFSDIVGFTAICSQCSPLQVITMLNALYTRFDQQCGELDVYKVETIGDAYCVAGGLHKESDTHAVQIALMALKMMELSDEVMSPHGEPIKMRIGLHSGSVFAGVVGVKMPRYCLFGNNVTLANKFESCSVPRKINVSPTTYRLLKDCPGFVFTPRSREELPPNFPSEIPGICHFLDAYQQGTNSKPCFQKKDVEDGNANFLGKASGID
method summary: sGC-HEK-cGMP assay with LC/MS detection
Type: cell-based
measurement context: HEK293 whole cells, LC/MS detection of cGMP, 10 μM DETA-NONOate; 50% of high control response (30 μM Compound Y); read-out: Absolute EC50 (nM)- binned (~)
The compounds listed here are annotated with their EC50.

These solved cases illustrate the format of a correct answer.
- compound: "CC1(C(=O)Nc2ccnc(-c3cc(-c4ccon4)n(Cc4ccccc4F)n3)n2)CCNC1=O (centres unmarked)"
  value measured: "100 to 1000 nM"
- compound: "OCCNc1cnc(-c2cc(-c3ccon3)n(Cc3ccccc3F)n2)nc1"
  value measured: "100 to 1000 nM"
- compound: "CC(=O)c1cc(-c2ncc(F)c(NCCCCC(=O)O)n2)nn1Cc1ccccc1F"
  value measured: "100 to 1000 nM"
- compound: "CC(C)(N)C(=O)Nc1ccnc(-c2cc(-c3ccon3)n(Cc3ccccc3F)n2)n1"
  value measured: "> 1000 nM"
- compound: "CC(C)(NC(=O)OCc1ccccc1)C(=O)Nc1ccnc(-c2cc(-c3ccon3)n(Cc3ccccc3F)n2)n1"
  value measured: "> 1000 nM"

Entry NC(=O)CNc1cnc(-c2cc(-c3ccon3)n(Cc3ccccc3F)n2)nc1 under soluble guanylate cyclase (sGC) (Homo sapiens, UniProt Q02108+Q02153) had EC50 of > 1000 nM

Entry NC(=O)c1nnc2n1CCN(c1nc(-c3cc(-c4ccon4)n(Cc4ccccc4F)n3)ncc1F)C2 under soluble guanylate cyclase (sGC) (Homo sapiens, UniProt Q02108+Q02153) had EC50 of < 100 nM

Entry CC(=O)c1cc(-c2ncc(F)c(N3CCNCC3)n2)nn1Cc1ccccc1F under soluble guanylate cyclase (sGC) (Homo sapiens, UniProt Q02108+Q02153) had EC50 of > 1000 nM

Entry CC(=O)c1cc(-c2ncc(F)c(N3CC(NC(=O)C(F)(F)F)C3)n2)nn1Cc1ccccc1F under soluble guanylate cyclase (sGC) (Homo sapiens, UniProt Q02108+Q02153) had EC50 of > 1000 nM

Entry CC(=O)c1cc(-c2ncc(F)c(N3CC(C)C(C(=O)O)C3)n2)nn1Cc1ccccc1F (centres unmarked) under soluble guanylate cyclase (sGC) (Homo sapiens, UniProt Q02108+Q02153) had EC50 of 100 to 1000 nM

Entry O=C(NC1CC1)C(O)(CNc1nc(-c2cc(-c3ccon3)n(Cc3ccccc3F)n2)ncc1F)C(F)(F)F (centres unmarked) under soluble guanylate cyclase (sGC) (Homo sapiens, UniProt Q02108+Q02153) had EC50 of < 100 nM

Entry CC(=O)c1cc(-c2ncc(F)c(N3CCC4(CC3)COC4)n2)nn1Cc1ccccc1F under soluble guanylate cyclase (sGC) (Homo sapiens, UniProt Q02108+Q02153) had EC50 of 100 to 1000 nM

Entry CC(=O)c1cc(-c2ncc(F)c(N(C)CC3(C(=O)O)CCCC3)n2)nn1Cc1ccccc1F under soluble guanylate cyclase (sGC) (Homo sapiens, UniProt Q02108+Q02153) had EC50 of < 100 nM

Entry Fc1ccccc1Cn1nc(-c2ncc(F)c(N3CCCCO3)n2)cc1-c1ccon1 under soluble guanylate cyclase (sGC) (Homo sapiens, UniProt Q02108+Q02153) had EC50 of 100 to 1000 nM

Entry CC(=O)c1cc(-c2ncc(F)c(NCCS(N)(=O)=O)n2)nn1Cc1ccccc1F under soluble guanylate cyclase (sGC) (Homo sapiens, UniProt Q02108+Q02153) had EC50 of 100 to 1000 nM

Entry Nc1ccc(CNc2nc(-c3cc(-c4ccon4)n(Cc4ccccc4F)n3)ncc2F)cc1O under soluble guanylate cyclase (sGC) (Homo sapiens, UniProt Q02108+Q02153) had EC50 of > 30000 nM

Entry CS(=O)(=O)CCNc1cnc(-c2cc(-c3ccon3)n(Cc3ccccc3F)n2)nc1 under soluble guanylate cyclase (sGC) (Homo sapiens, UniProt Q02108+Q02153) had EC50 of > 1000 nM
